Task for the reader: assign each of the following compounds its reported growth.
system: SF-268 CNS; test: NCI-60 one-dose screen, 48 h (100 = growth as untreated, 0 = no growth, -100 = all killed); conditions: 10 µM unless noted
This is part of a sample that, as a whole, favours compounds with a hit. Of some 83,000 tested, about 20% had one in any assay.
Numbers only; they are read as %.

In: Recall and state the measured growth for COC(=O)[C@]12CC[C@@H](C)[C@H](C)[C@@H]1C1=CC[C@@H]3[C@@]4(C)C[C@@H](OC(C)=O)[C@H](O)[C@@](C)(CO)[C@@H]4[C@H](O)C[C@@]3(C)[C@]1(C)CC2 .
Out: -84

In: Recall and state the measured growth for COc1cccc(-c2nn(-c3ccccc3)cc2-c2ccnc(NCCNS(=O)(=O)c3ccc(C(F)(F)F)cc3)c2)c1 .
Out: 36

In: Recall and state the measured growth for Cc1ccc(Nc2c(C(N)=O)cnc3ccc(S(=O)(=O)Nc4cc(C)on4)cc23)cc1 .
Out: 104

In: Recall and state the measured growth for O=c1[nH]c2c3ccncc3cc(-c3cccc(Cl)c3)c2c2cnccc12 .
Out: 53.9
